# Test system: Glycine max (GLXMA)
# Protocol Notes: D. Pre-emergence effect on useful plants, GLXMA
# Type: in vivo
# Condition Details: useful plant, application rate 80 g/ha
Observation Type: Pre-emergence efficacy against GLXMA in % (%)

Examples with answers:
- Compound: "C=CCS(=O)(=O)Oc1ccccc1Oc1ncc(Cl)cn1 [Example I-36]"
  Value Observed: 0
- Compound: "Cc1cccc(Oc2ncc(Cl)cn2)c1OS(=O)(=O)CCC(F)=C(F)F [Example I-71]"
  Value Observed: 10

(1) O=S(=O)(CCCC(F)(F)C(F)(F)F)Oc1c(F)cccc1Oc1ncc(Cl)cn1 [Example I-68]
(2) Cc1cccc(Oc2ncc(Cl)cn2)c1OS(=O)(=O)CCCCl [Example I-11]
*Q* # compare Pre-emergence efficacy against GLXMA in % for 1 vs 2 ; return the one with the smaller value Indicate your choice by writing its label.
*A* 1
(1: 10%, 2: 20%)

(I) O=S(=O)(CCC1CC1)Oc1c(F)cccc1Oc1ncc(Cl)cn1 [Example I-55]
(II) O=S(=O)(CC=C(Cl)Cl)Oc1c(F)cccc1Oc1ncc(Cl)cn1 [Example I-85]
*Q* Hi there! Just curious which has the higher Pre-emergence efficacy against GLXMA in % between I and II . Please identify the chosen entry by its label.
*A* I
(I: 10%, II: 0%)

====

# System: Oryza sativa (ORYSA)
# Protocol Notes: D. Pre-emergence effect on useful plants, ORYSA
# Type: in vivo
# Condition Details: useful plant, application rate 80 g/ha
Observation Type: Pre-emergence efficacy against ORYSA in % (%)

Worked cases, answers included:
- Compound: "O=S(=O)(CCCCl)Oc1cccc(F)c1Oc1ncc(Cl)cn1 [Example I-13]"
  Value Observed: 10
- Compound: "CC(C)CCS(=O)(=O)Oc1ccccc1Oc1ncc(Cl)cn1 [Example I-25]"
  Value Observed: 0
- Compound: "CCCS(=O)(=O)Oc1ccccc1Oc1ncc(Cl)cn1 [Example I-3]"
  Value Observed: 20
- Compound: "O=S(=O)(CCl)Oc1ccccc1Oc1ncc(Cl)cn1 [Example I-9]"
  Value Observed: 0

(P) Cc1cccc(Oc2ncc(Cl)cn2)c1OS(=O)(=O)CCCCl [Example I-11]
(Q) CCCCCS(=O)(=O)Oc1ccccc1Oc1ncc(Cl)cn1 [Example I-24]
*Q* Lab log: flag the item ( P or Q ) with the smaller Pre-emergence efficacy against ORYSA in % figure. Give the label under which the chosen entry appears.
*A* Q

====

# System: Triticum aestivum (TRZAS)
# Protocol Notes: F. Post-emergence effect on useful plants, TRZAS
# Assay type: in vivo
# Condition Details: useful plant, application rate 80 g/ha
Observation Type: Post-emergence efficacy against TRZAS in % (%)

- Compound: "O=S(=O)(CCCCl)Oc1c(F)cccc1Oc1ncc(Cl)cn1"
  Value Observed: 20
- Compound: "Cc1cccc(Oc2ncc(Cl)cn2)c1OS(=O)(=O)CCCCl"
  Value Observed: 20
- Compound: "O=S(=O)(CCC(F)=C(F)F)Oc1c(Cl)cccc1Oc1ncc(Cl)cn1"
  Value Observed: 0

(a) Cc1cccc(Oc2ncc(Cl)cn2)c1OS(=O)(=O)CC1CC(F)(F)C1
(b) CC(C)CS(=O)(=O)Oc1ccccc1Oc1ncc(Cl)cn1
*Q* Lab log: flag the item ( a or b ) with the smaller Post-emergence efficacy against TRZAS in % figure. Give the chosen item's label as your response.
*A* a

====

# Tested on: Kochia scoparia (KCHSC)
# Protocol Notes: A. Herbicidal pre-emergence efficacy, KCHSC
# Assay type: in vivo
# Condition Details: pre-emergence, dosage 320 g/ha
Quick reference: Pre-emergence efficacy against KCHSC of the listed items.
Answer format: numeric, % implied, no suffix.

Consider the worked cases shown below.
- Compound: "O=S(=O)(CCl)Oc1ccccc1Oc1ncc(Cl)cn1"
  Assay Target: "Kochia scoparia (KCHSC)"
  Value Observed: 100
- Compound: "O=S(=O)(CCCCl)Oc1ccccc1Oc1ncc(F)cn1"
  Assay Target: "Kochia scoparia (KCHSC)"
  Value Observed: 100
- Compound: "O=S(=O)(Oc1ccccc1Oc1ncc(Cl)cn1)C1CC1"
  Assay Target: "Kochia scoparia (KCHSC)"
  Value Observed: 100
- Compound: "CCCS(=O)(=O)Oc1ccccc1Oc1ncc(Cl)cn1"
  Assay Target: "Kochia scoparia (KCHSC)"
  Value Observed: 100
- Compound: "O=S(=O)(CCC(F)(F)F)Oc1c(F)cccc1Oc1ncc(Cl)cn1"
  Assay Target: "Kochia scoparia (KCHSC)"
  Value Observed: 100

*Q* Consider the compound shown here: N#Cc1cc(Cl)cnc1Oc1ccccc1OS(=O)(=O)CCCCl What is its recorded Pre-emergence efficacy against KCHSC?
*A* 100

*Q* # lookup: Pre-emergence efficacy against KCHSC of O=S(=O)(CCC1CC1)Oc1c(F)cccc1Oc1ncc(Cl)cn1
*A* 100

*Q* Need Pre-emergence efficacy against KCHSC, item O=S(=O)(CCCC(F)(F)F)Oc1c(Br)cccc1Oc1ncc(F)cn1
*A* 100

*Q* What value of Pre-emergence efficacy against KCHSC has been recorded for this entry: O=S(=O)(CCCC(F)(F)F)Oc1c(Cl)cccc1Oc1ncc(Cl)cn1
*A* 100

*Q* Can you share its Pre-emergence efficacy against KCHSC? I mean this compound: O=S(=O)(Oc1ccccc1Oc1ncc(Cl)cn1)C1CCCC1
*A* 90

*Q* Return reported Pre-emergence efficacy against KCHSC; argument: O=S(=O)(CCCC(F)(F)F)Oc1ccccc1Oc1ncc(Cl)cn1
*A* 100

*Q* Name the recorded Pre-emergence efficacy against KCHSC for O=S(=O)(CCCC(F)(F)C(F)(F)F)Oc1c(F)cccc1Oc1ncc(Cl)cn1 .
*A* 100

*Q* Query: Pre-emergence efficacy against KCHSC; subject: O=S(=O)(CCCC(F)F)Oc1c(F)cccc1Oc1ncc(Cl)cn1
*A* 100

*Q* Any idea what its Pre-emergence efficacy against KCHSC is? The compound is O=S(=O)(CCCCl)Oc1ccccc1Oc1ncc(Cl)cn1
*A* 100

*Q* Could you tell me which Pre-emergence efficacy against KCHSC is on file for O=S(=O)(CCC(F)(F)F)Oc1ccccc1Oc1ncc(Cl)cn1 ?
*A* 100

====

# Tested on: Echinochloa crus-galli (ECHCG)
# Protocol Notes: A. Herbicidal pre-emergence efficacy, ECHCG
# Type: in vivo
# Condition Details: 1280 g/ha; scored visually after about 3 weeks vs untreated controls
Observation Type: Pre-emergence efficacy against ECHCG (%)
Express your answer in %, writing the number without its unit.

Solved cases (2 shown):
- Molecule: "CCCCS(=O)(=O)Oc1ccccc1Oc1ncc(Cl)cn1"
  Pre-emergence efficacy against ECHCG [%]: 100
- Molecule: "CC(C)S(=O)(=O)Oc1ccccc1Oc1ncc(Cl)cn1"
  Pre-emergence efficacy against ECHCG [%]: 100

*Q* Quick one: Pre-emergence efficacy against ECHCG of Cc1cccc(Oc2ncc(Cl)cn2)c1OS(=O)(=O)CCC(F)(F)F ?
*A* 100

*Q* I'd like to know its Pre-emergence efficacy against ECHCG. The molecule in question is O=S(=O)(CCC1CC1)Oc1c(F)cccc1Oc1ncc(Cl)cn1
*A* 100

*Q* Which value of Pre-emergence efficacy against ECHCG has been reported for COCCS(=O)(=O)Oc1c(F)cccc1Oc1ncc(Cl)cn1 in the records?
*A* 90

*Q* // Pre-emergence efficacy against ECHCG lookup, key: O=S(=O)(CCC1CC1(Cl)Cl)Oc1c(F)cccc1Oc1ncc(Cl)cn1 (stereo not drawn)
*A* 90

====

Reported Pre-emergence efficacy against ALOMY values are given for each entry in this list.
# System: Alopecurus myosuroides (ALOMY)
# Protocol Notes: A. Herbicidal pre-emergence efficacy, ALOMY
# Type: in vivo
# Condition Details: 320 g/ha; scored visually after about 3 weeks vs untreated controls
Give a bare numeral; the unit % is implied.

Some compounds with recorded Pre-emergence efficacy against ALOMY:
- Structure String: "O=S(=O)(CCCC(F)(F)F)Oc1c(Cl)cccc1Oc1ncc(Cl)cn1"
  Pre-emergence efficacy against ALOMY [%]: 90
- Structure String: "O=S(=O)(CCCCl)Oc1c(F)cccc1Oc1ncc(Cl)cn1"
  Pre-emergence efficacy against ALOMY [%]: 90
- Structure String: "O=S(=O)(CCCC(F)F)Oc1c(F)cccc1Oc1ncc(Cl)cn1"
  Pre-emergence efficacy against ALOMY [%]: 90
- Structure String: "O=S(=O)(CCCC(F)(F)F)Oc1c(F)cccc1Oc1ncc(F)cn1"
  Pre-emergence efficacy against ALOMY [%]: 100
- Structure String: "O=S(=O)(CCC(F)(F)F)Oc1c(F)cccc1Oc1ncc(Cl)cn1"
  Pre-emergence efficacy against ALOMY [%]: 90

*Q* Recorded Pre-emergence efficacy against ALOMY of O=S(=O)(CCC(F)(F)F)Oc1c(F)cccc1Oc1ncc(F)cn1 , please.
*A* 100

*Q* Query: Pre-emergence efficacy against ALOMY; subject: O=S(=O)(CCC(F)(F)F)Oc1c(F)cccc1Oc1ncc(Br)cn1
*A* 90

*Q* Field request: Pre-emergence efficacy against ALOMY | item: O=S(=O)(CCCC(F)(F)F)Oc1ccccc1Oc1ncc(Cl)cn1
*A* 90

*Q* Fill in: Pre-emergence efficacy against ALOMY of CCCS(=O)(=O)Oc1ccccc1Oc1ncc(Cl)cn1 is ___
*A* 90

*Q* Can you look up the measured Pre-emergence efficacy against ALOMY of Cc1cccc(Oc2ncc(F)cn2)c1OS(=O)(=O)CCC(F)(F)F for me?
*A* 90

*Q* What measured Pre-emergence efficacy against ALOMY goes with O=S(=O)(CCCCl)Oc1ccccc1Oc1ncc(Cl)cn1 ?
*A* 100
